Origin of values: ChEMBL document CHEMBL4689842

# Test system: Fibroblast
# assay info: Multiplex assay against human fibroblast
# Type: toxicity, cell-based
# details: 48 h, 10 µM, compound concentration 10 uM, replicate 2
Measured Population Apoptotic (%) values are reported for all entries that follow.
The figure you give is taken to be in %; do not add the unit.

Please review the entries below; each comes with its answer.
| molecule | Population Apoptotic (%) |
| --- | --- |
| S=C(NCCCc1c[nH]cn1)NCCCN(Cc1ccc(Cl)c(Cl)c1)c1ccc(Br)cn1 | 80 |
| CCOC(=O)c1c(C)[nH]c2ccc3c(c12)CN1CCc2cc(OC)ccc2C1O3 (stereo unspecified) | 66 |
| CN(C)C(=O)C(CCN1CCC(O)(c2ccc(Cl)cc2)CC1)(c1ccccc1)c1ccccc1.Cl [LOPERAMIDE HYDROCHLORIDE] | 90 |
| COCC(=O)NC/C=C/c1ccc2ncnc(Nc3ccc(Oc4ccc(C)nc4)c(C)c3)c2c1 [CP-724714] | 40 |

Data request: Consider the molecule shown here: CCc1cccc(CC)c1NC(=O)c1nn(C)c2c1CCc1cnc(Nc3ccc(C(=O)NC4CCN(C)CC4)cc3OC(F)(F)F)nc1-2 What is its recorded Population Apoptotic (%)?
Data returned: 25

Data request: Consider the molecule shown here: Cc1cn(-c2cc(NC(=O)c3ccc(C)c(Nc4nccc(-c5cccnc5)n4)c3)cc(C(F)(F)F)c2)cn1 [NILOTINIB] What is its recorded Population Apoptotic (%)?
Data returned: 100
